Tested on: OVCAR-3 ovarian
Assay: NCI tumour cell line growth inhibition, 48 h; in the data active = GI50 below about 0.43 µM; inactive = the rest
Classes used: active, inactive

- Compound: "CC(C)c1ccc(Nc2ccc3c(OCCCN4CCN(C)CC4)cccc3n2)cc1"
  Label Class: "inactive"
- Compound: "COc1ccc(C(=O)c2cc(OC)c(C)c(OC)c2)cc1OC(=O)CCl"
  Label Class: "active"
- Compound: "O=S(=O)(Nc1cc(F)cc(Cl)c1)c1ccc(-c2cnc(C3CC3)o2)cc1"
  Label Class: "inactive"
- Compound: "Cn1c(=O)c2c(nc(Nc3cc(=O)[nH]c(=O)[nH]3)n2Cc2ccccc2)n(C)c1=O"
  Label Class: "inactive"
- Compound: "CCOC(=O)Oc1c(OC)cc(C(=O)NC2CCc3cc(OC)c(OC)c(OC)c3-c3ccc(SC)c(=O)cc32)cc1OC (stereo not given)"
  Label Class: "active"

Ref: PubChem BioAssay (NCI)
